Hi there, I'd appreciate the recorded cytotoxicity at 70.5 h for every entry that follows.
Assay: Human HepG2 cell viability assay in 384 well format
Format: toxicity, cell-based
Design: dose 125 nL, time 70.5 hour; concentration not given beside the values
Settings: HepG2 cells, read-out: Inhibition

For every listed record, write down its cytotoxicity at 70.5 h.
1. COC1CN(CCO)S(=O)(=O)c2ccccc21 (configuration not stated)
2. Cc1cc(N(C)Cc2ncc[nH]2)nc(-c2ccccc2)n1
3. CN1CCN(C(CNC(=O)c2ccc(Cl)cc2F)c2cccs2)CC1 (configuration not stated)

(A)
["-7.83%", "-6.89%", "42.7%"]

----------
Hi there, I'd appreciate the recorded cytotoxicity at 70.5 h for every entry that follows.
Experiment: Human HepG2 cell viability assay in 384 well format
Assay type: toxicity, cell-based
Parameters: dose 125 nL, time 70.5 hour; concentration not given beside the values
Conditions: HepG2 cells, read-out: Inhibition
One number for each entry, in %.

Look over these answered cases.
N#Cc1cccc(C(=O)Nc2ccc([C@@H](O)[C@H]3COCC(=O)N3)cc2)c1 :: -9.14
COc1ccc(-c2cc(C(=O)NCCn3ccnc3)n(C)n2)cc1 :: 19.2
O=c1ccc2c(n1CCN1CCCC1)CCN(Cc1ccoc1)CC2 :: -5.75
Fc1ccc(CNCC2OCCc3cn(CC4CC4)nc32)cc1 (centres undefined) :: 5.14
Cc1cc(F)ccc1-n1cc(O)c(C(N)=O)n1 :: -19

Each compound below has a reported value. Please supply its cytotoxicity at 70.5 h.
1. Cn1cc(C(=O)N2CC[C@@H]3[C@@H]2CCN3Cc2cccnc2)cn1
2. O=C(NCc1ccccc1CN1CCCC1)Nc1cccnc1

(A)
1: -14.5; 2: -4.93
